Measured inhibition by item
target: Solute carrier family 2, facilitated glucose transporter member 1 (Homo sapiens); assay: ST_JUDE_LEISH: Cytotoxicity at 2uM final concentration against transgenic Leishmania Mexicana promastigotes LmGLUT1 that are glucose transport deficient and complemented with the human glucose transporter GLUT1. Activity is measured by DNA content using SYBR green in vitro; type: functional
Note: unit % is implicit; provide only the numeric part.

The following compounds have reported results that may help.
COMPOUND: O=C(Cc1c(-c2ccccc2)[nH]c2ccccc12)NC1CCC(CN2CCC(c3c[nH]c4ccccc34)CC2)CC1 (centres undefined)
inhibition, %: 4.32

COMPOUND: COc1cc(NCCCNC(=O)c2cn(Cc3ccccc3)c3ccccc23)nc2ccccc12
inhibition, %: -0.26

COMPOUND: CNCCN(C)C(=O)Oc1c(Br)c(C)nc(C)c1-c1ccc(Oc2ccc(OC(F)(F)F)cc2)cc1
inhibition, %: 2.73

Lab note: next compound to report on.
compound `Cc1[nH]c2c(C)cc(NS(C)(=O)=O)cc2c1C1CCN(CC2CCN(C(=O)/C=C/c3ccc(Cl)c(Cl)c3)CC2)CC1` , inhibition observed: 1.48
